Protocol Details: TLR3 IRF3 reporter activation blockers – cell-based, poly I:C stimulus, luciferase, 10K MLSCN set, primary screen (AID 602277)
Condition Summary: HEK293-TLR3 RL24 IRF3 luciferase reporter, at 10 µM, stronger effect = higher value
Reported Metric: inhibition (%)
Give just the numeric value; % need not be written.

Request: Give its inhibition value. Item: c1ccc(CN2CCN(CCCNc3ccc4nnc(-c5ccccc5)n4n3)CC2)cc1
Result: -17.8

Request: Now consider CCOc1ccc(NCc2nnc(SCC(=O)Nc3cc(C)on3)n2-c2ccccc2OC)cc1 .
Result: 30.4

Request: And what about the molecule CCc1nc(SCc2cc(Cl)ccc2OC)n[nH]1 ?
Result: -22.3

Request: Try the molecule NC(=O)c1sc2nc3c(c(-c4ccco4)c2c1N)CCC3
Result: -2.19

Request: Further, for O=C1C2ON(c3ccc(Cl)cc3)C(c3ccco3)C2C(=O)N1c1ccccc1 (stereo not drawn) ?
Result: -3.63

Request: Please give the result for CCOC(=O)CSc1nc2cccnc2n1-c1ccc(F)cc1 too.
Result: 2.83

Request: Also, COCCn1nnnc1C(C(C)C)N1CCN(C(=O)c2ccco2)CC1 (stereo not drawn) please.
Result: -17.2

Request: // repeat for COc1ccccc1OCCOCCn1cnc2ccccc2c1=O and report
Result: 12.5

Request: And O=C(CSc1ncnc2nc[nH]c12)c1ccc(Cl)cc1 ?
Result: -23.1

Request: Next: Cc1ccc(-c2cc(C(F)(F)F)n3nc(C(=O)N4CCCC4)cc3n2)cc1
Result: -25.5

Request: Moving on to O=C(CSc1nnnn1-c1ccccc1)c1cc2ccccc2oc1=O
Result: -14.1

Request: // query: CC(C)N(C(=O)N1CCC(c2nc(-c3ccncc3)no2)CC1)C(C)C
Result: -5.83

Request: Same lookup for CCCSc1nc(N)c(C#N)c(-c2ccc(C)cc2)c1C#N , please.
Result: 9.67

Request: Do the same for CCCCN(CCCC)CCn1cnc2c([nH]c3ccc(OC)cc32)c1=O please
Result: 30.7

Request: What do you have for Cc1ccc(C)c(/C(O)=C2\C(=O)C(=O)N(CCCN3CCOCC3)C2c2cccnc2)c1 (stereo not drawn) ?
Result: 21.1

* * *

Target Of Assay: Voltage-gated potassium channel subunit beta-2 (Rattus norvegicus)
Protocol Details: enhancers of rat Kvbeta2 NADPH turnover – biochemical, NADPH fluorescence, primary screen (AID 623);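 further: fluorescence intensity change per second fitted from 20 to 320 s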
Condition Summary: Recombinant KvBeta, NADPH fluorescence decrease slope, 10 min; at 10 µM; stronger effect = lower value
Reported Metric: NADPH fluorescence slope
Field format: numeric only.

>  <Molecule>
Cc1cccc(-c2cc3nc(C)cc(NCCCN(C)C)n3n2)c1

>  <NADPH fluorescence slope>
-7.5e-05

$$$$

Request: Given the entry COc1ccc(/C=N/n2cc(-c3ccc(OC)cc3)nc2N)cc1 , what NADPH fluorescence slope was observed with Voltage-gated potassium channel subunit beta-2 (Rattus norvegicus)?
Result: 1.1e-05

* * *

Protocol Details: inhibitors of TNFa-induced NFkB p65 translocation, primary screen, imaging, HUVEC, MLSMR starter and 10KST1 sets (AID 438);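 further: compound added about 3h40 before a 20 min TNFalpha stimulation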
Condition Summary: HUVEC TNFa-induced p65 nuclear translocation; measured here: nuclei count (cytotoxicity indicator), at 2.08 µM
Reported Metric: cell count
No unit in the answer, only the number.

Solved cases below.
>  <Molecule>
CCOC(=O)CC(=O)Nc1c(C)cc(C)cc1C

>  <cell count>
270

$$$$
>  <Molecule>
COC(=O)c1ccc(CSc2nc3c(cnn3-c3ccc(F)cc3)c(=O)[nH]2)o1

>  <cell count>
653

$$$$
>  <Molecule>
CC(CN(C)Cc1ccccc1)OC(=O)c1ccc2c(c1)OCCO2 (stereo unspecified)

>  <cell count>
596

$$$$
>  <Molecule>
CN=C(Nc1cc(C)nn1-c1ccccc1)c1ccccc1

>  <cell count>
455

$$$$
>  <Molecule>
COc1ccc(C(=O)Nc2ccc(S(=O)(=O)NC(C)=O)cc2)cc1

>  <cell count>
568

$$$$

Request: Please report the recorded cell count for COc1ccc2c(c1OC)C(=O)OC2CC(=O)c1ccc(O)cc1 (stereo unspecified) .
Result: 556

Request: What about Cc1nc(C)c(C(=O)C2=C(O)C(=O)N(CCN3CCOCC3)C2c2ccco2)s1 (stereo unspecified) ?
Result: 244

Request: Param item: COc1cccc(C(=O)CN2CCC(NC(=O)NC3CCCCC3)CC2)c1
Result: 513
